- Tested on: Plasmodium falciparum chloroquine-resistant W2 clone
- ASSAY METHOD TEXT: anti-HRP2 test on P. falciparum-infected erythrocytes
- Assay type: cell-based
- ASSAY SETUP: Plasmodium falciparum, W2, Erythrocyte, read-out: IC50 Plasmodium Falciparum Anti-HRP2
QUANTITY MEASURED: IC50 (nM)

COMPOUND: CCN(CC)CCCC(C)Nc1ccnc2cc(Cl)ccc12 (stereo not shown) [Chloroquine, reference compound]
REPORTED VALUE: 220

====

- Tested on: Plasmodium falciparum chloroquine-resistant W2 clone
- ASSAY METHOD TEXT: anti-HRP2 test on P. falciparum-infected erythrocytes
- Format: cell-based
- ASSAY SETUP: Plasmodium falciparum, Erythrocyte; W2 clone, 0.05% parasitemia, 1.5% hematocrit; read-out: IC50 Plasmodium Falciparum Anti-HRP2
pIC50: −log10 of the molar value.
# pIC50 per record follows

ENTRY SMILES: Cc1cc(Nc2cccc(Cl)c2)n2nc(C(F)(F)F)nc2n1
RESULT OPERATOR: =
pIC50: 5.74
//
ENTRY SMILES: Cc1cc(N2CCCC2)n2nc(C(F)(F)F)nc2n1
RESULT OPERATOR: <
pIC50: 3.73
//
ENTRY SMILES: FC(F)(F)c1cc(Nc2cc(Cl)cc(Cl)c2)n2nc(C(F)(F)F)nc2n1
RESULT OPERATOR: =
pIC50: 4.91
//
ENTRY SMILES: Cc1cc(Nc2ccc(Cl)cc2Cl)n2nc(C(F)(F)F)nc2n1
RESULT OPERATOR: =
pIC50: 5.57
//
ENTRY SMILES: Cc1cc(-n2cccn2)n2nc(C(F)(F)F)nc2n1
RESULT OPERATOR: =
pIC50: 5.68
//
ENTRY SMILES: Cc1cc(Nc2c(F)cccc2F)n2nc(C(F)(F)F)nc2n1
RESULT OPERATOR: <
pIC50: 4.16

====

- Test system: human hepatoma cell line (HepG2)
- Assay type: cell-based
- ASSAY SETUP: MTT, 24 h incubation
- Method: For in vitro cytotoxicity experiments, the cell monolayer was trypsinized, washed with culture medium, distributed in a flat-bottomed 96-well plate (5 × 10^3 cells/well), and finally incubated for 18 h at 37 °C for cell adherence. […] For the MTT assay, which evaluates mitochondrial viability, 20 µL of MTT solution (5 mg/mL) was added, and the plates were incubated for an additional 3 h. […] Optical densities at 570 and 630 nm (background) were determined by an ELISA reader. […]
# MDL50 HepG2 per record follows
QUANTITY MEASURED: MDL50 HepG2 (µM)

COMPOUND: Cc1cc(Nc2ccccc2)n2nc(C(F)(F)F)nc2n1
RESULT OPERATOR: >
REPORTED VALUE: 682

COMPOUND: Cc1cc(Nc2cccc3ccccc23)n2nc(C(F)(F)F)nc2n1
RESULT OPERATOR: =
REPORTED VALUE: 326

COMPOUND: Cc1cc(Nc2c(F)cccc2F)n2nc(C(F)(F)F)nc2n1
RESULT OPERATOR: =
REPORTED VALUE: 337

COMPOUND: Cc1cc(Nc2ccc(Cl)c(Cl)c2)n2nc(C(F)(F)F)nc2n1
RESULT OPERATOR: >
REPORTED VALUE: 552

COMPOUND: Cc1cc(N2CCOCC2)n2nc(C(F)(F)F)nc2n1
RESULT OPERATOR: >
REPORTED VALUE: 697

COMPOUND: CCN(CC)CCCC(C)Nc1cc(C)nc2ncnn12 (stereo not shown)
RESULT OPERATOR: >
REPORTED VALUE: 689

COMPOUND: Cc1cc(NC2CCCCC2)n2nc(C(F)(F)F)nc2n1
RESULT OPERATOR: =
REPORTED VALUE: 515

COMPOUND: Cc1cc(N2CCCC2)n2nc(C(F)(F)F)nc2n1
RESULT OPERATOR: >
REPORTED VALUE: 738

COMPOUND: Cc1cc(Nc2ccccn2)n2nc(C(F)(F)F)nc2n1
RESULT OPERATOR: =
REPORTED VALUE: 394

COMPOUND: Cc1cc(Nc2ccc(C(F)(F)F)cc2)n2nc(C)nc2n1
RESULT OPERATOR: =
REPORTED VALUE: 446

====

- System: Plasmodium falciparum chloroquine-resistant W2 clone
- ASSAY METHOD TEXT: anti-HRP2 test on P. falciparum-infected erythrocytes
- Assay type: cell-based
- ASSAY SETUP: Plasmodium falciparum, Erythrocyte; W2 clone, 0.05% parasitemia, 1.5% hematocrit; read-out: IC50 Plasmodium Falciparum Anti-HRP2
pIC50: −log10 of the molar value.
Response field class: enum, chosen by comparing pIC50 against category 1 = under 5, category 2 = from 5 up to 6, category 3 = 6 and over

COMPOUND: CCN(CC)CCCC(C)Nc1cc(C)nc2nc(C(F)(F)F)nn12 (centres unmarked)
CATEGORY: category 1
//
COMPOUND: Cc1cc(-n2cccc2)n2nc(C(F)(F)F)nc2n1
CATEGORY: category 1
//
COMPOUND: Cc1cc(N2CCOCC2)n2nc(C(F)(F)F)nc2n1
CATEGORY: category 1
//
COMPOUND: Cc1cc(-n2ccnc2)n2nc(C(F)(F)F)nc2n1
CATEGORY: category 1
//
COMPOUND: Cc1cc(Nc2ccc(C(F)(F)F)cc2)n2nc(C)nc2n1
CATEGORY: category 3
//
COMPOUND: COc1cc(Nc2cc(C)nc3nc(C(F)(F)F)nn23)cc(OC)c1
CATEGORY: category 2
//
COMPOUND: Cc1cc(Nc2nc(C(F)(F)F)n[nH]2)n2nc(C(F)(F)F)nc2n1
CATEGORY: category 1
//
COMPOUND: Cc1cc(Nc2ccc3ccccc3c2)n2nc(C(F)(F)F)nc2n1
CATEGORY: category 3
//
COMPOUND: Cc1cc(N2CCN(C)CC2)n2nc(C(F)(F)F)nc2n1
CATEGORY: category 1
//
COMPOUND: CCN(CC)CCCC(C)Nc1cc(C)nc2ncnn12 (centres unmarked)
CATEGORY: category 1
//
COMPOUND: Cc1cc(Nc2ccccc2)n2nc(C(F)(F)F)nc2n1
CATEGORY: category 2
//
COMPOUND: Cc1cc(Nc2ccccn2)n2nc(C(F)(F)F)nc2n1
CATEGORY: category 1
//
COMPOUND: Cc1cc(Nc2cc(Cl)cc(Cl)c2)n2nc(C)nc2n1
CATEGORY: category 1
//
COMPOUND: COc1ccc(Nc2cc(C)nc3nc(C(F)(F)F)nn23)cc1
CATEGORY: category 3
//
COMPOUND: COc1cc(Nc2cc(C)nc3nc(C)nn23)cc(OC)c1
CATEGORY: category 2
//
COMPOUND: Cc1cc(-n2cncn2)n2nc(C(F)(F)F)nc2n1
CATEGORY: category 1
//
COMPOUND: Cc1cc(Nc2ccc(Cl)c(Cl)c2)n2nc(C(F)(F)F)nc2n1
CATEGORY: category 3
//
COMPOUND: Cc1cc(Nc2cccc3ccccc23)n2nc(C(F)(F)F)nc2n1
CATEGORY: category 2

====

# MDL50 HepG2 per record follows
- System: human hepatoma cell line (HepG2)
- Format: cell-based
- ASSAY SETUP: MTT, 24 h incubation
QUANTITY MEASURED: MDL50 HepG2

COMPOUND: COc1cc(Nc2cc(C)nc3nc(C)nn23)cc(OC)c1 [Compound 14]
TARGET SYSTEM: human hepatoma cell line (HepG2)
QUANTITY MEASURED: MDL50 HepG2
REPORTED VALUE: 515 µM
//
COMPOUND: Cc1cc(-n2ccnc2)n2nc(C(F)(F)F)nc2n1 [Compound 25]
TARGET SYSTEM: human hepatoma cell line (HepG2)
QUANTITY MEASURED: MDL50 HepG2
REPORTED VALUE: <93 µM
//
COMPOUND: Cc1cc(-n2cncn2)n2nc(C(F)(F)F)nc2n1 [Compound 26]
TARGET SYSTEM: human hepatoma cell line (HepG2)
QUANTITY MEASURED: MDL50 HepG2
REPORTED VALUE: <93 µM
//
COMPOUND: CCN(CC)CCCC(C)Nc1cc(C)nc2nc(C(F)(F)F)nn12 (centres unmarked) [Compound 29]
TARGET SYSTEM: human hepatoma cell line (HepG2)
QUANTITY MEASURED: MDL50 HepG2
REPORTED VALUE: >558 µM
//
COMPOUND: COc1ccc(Nc2cc(C)nc3nc(C(F)(F)F)nn23)cc1 [Compound 11]
TARGET SYSTEM: human hepatoma cell line (HepG2)
QUANTITY MEASURED: MDL50 HepG2
REPORTED VALUE: >619 µM
//
COMPOUND: Cc1cc(Nc2nc(C(F)(F)F)n[nH]2)n2nc(C(F)(F)F)nc2n1 [Compound 23]
TARGET SYSTEM: human hepatoma cell line (HepG2)
QUANTITY MEASURED: MDL50 HepG2
REPORTED VALUE: <71 µM
//
COMPOUND: CCN(CC)CCCC(C)Nc1ccnc2cc(Cl)ccc12 (centres unmarked) [Chloroquine, reference compound]
TARGET SYSTEM: human hepatoma cell line (HepG2)
QUANTITY MEASURED: MDL50 HepG2
REPORTED VALUE: 490 µM
//
COMPOUND: Cc1cc(-n2cccc2)n2nc(C(F)(F)F)nc2n1 [Compound 27]
TARGET SYSTEM: human hepatoma cell line (HepG2)
QUANTITY MEASURED: MDL50 HepG2
REPORTED VALUE: >749 µM
